tested on: human erythrocytes; test: Hemolysis assay; assay type: cell-based
Square brackets hold non-standard residues; d marks the D form. Peptide text beside a SMILES is read from it. Gly(N-CH2CH2-imidazol-4-yl) = O=C(O)CNCCc1c[nH]cn1; Nspe = C[C@H](NCC(=O)O)c1ccccc1; Nlys = NCCCCNCC(=O)O
Provide the recorded HD50 for the entries that follow.

{"compound": "C[C@@H](c1ccccc1)N(CC(=O)N(CCc1cnc[nH]1)CC(=O)N(CCCCN)CC(=O)N(CC(=O)N(CC(=O)N(CCCCN)CC(=O)N(CC(=O)N(CCc1cnc[nH]1)CC(N)=O)[C@@H](C)c1ccccc1)[C@@H](C)c1ccccc1)[C@@H](C)c1ccccc1)C(=O)CN(CCCCN)C(=O)CN(C(=O)CN(C(=O)CNCCCCN)[C@@H](C)c1ccccc1)[C@@H](C)c1ccccc1 [1-Nhis6,12] (H-[Nlys][Nspe][Nspe][Nlys][Nspe][Gly(N-CH2CH2-imidazol-4-yl)][Nlys][Nspe][Nspe][Nlys][Nspe][Gly(N-CH2CH2-imidazol-4-yl)]-NH2)", "measuredProperty": "HD50", "result": ">110/>110 μM"}

(Q) Find the recorded HD50 belonging to C[C@@H](c1ccccc1)N(CC(=O)N(CCCCN)CC(=O)N(CC(=O)N(CC(=O)N(CCCCN)CC(=O)N(CC(=O)N(CC(=O)N(CCCCN)CC(N)=O)[C@@H](C)c1ccccc1)[C@@H](C)c1ccccc1)[C@@H](C)c1ccccc1)[C@@H](C)c1ccccc1)C(=O)CN(C(=O)CNCCCCN)[C@@H](C)c1ccccc1 [110mer, H-(Nlys-Nspe-Nspe)3-Nlys-NH2] (H-[Nlys][Nspe][Nspe][Nlys][Nspe][Nspe][Nlys][Nspe][Nspe][Nlys]-NH2) and report it.
(A) >200/>200 μM

###

system: Proteus vulgaris ATCC 49132; assay type: cell-based; settings: ATCC 49132
Numbered stars: 1 amine (or outer) side, 2 acyl side, 3 side chain; on linkers, the order of the positions; unused ones are H or OH. Square brackets hold non-standard residues; d marks the D form. Peptide text beside a SMILES is read from it. X1 = CC(C)[C@H](C)N(CC(=O)[*:2])[*:1]; Nspe = C[C@H](NCC(=O)O)c1ccccc1; Nphe = O=C(O)CNCc1ccccc1; Nlys = NCCCCNCC(=O)O
measuredProperty: MIC Proteus vulgaris ATCC 49132 (µM)
Answers are plain numbers, in µM.

{"compound": "C[C@@H](c1ccccc1)N(CC(N)=O)C(=O)CN(Cc1ccccc1)C(=O)CN(CCCCN)C(=O)CN(C(=O)CN(Cc1ccccc1)C(=O)CN(CCCCN)C(=O)CN(C(=O)CN(Cc1ccccc1)C(=O)CN(CCCCN)C(=O)CN(C(=O)CN(Cc1ccccc1)C(=O)CNCCCCN)[C@@H](C)c1ccccc1)[C@@H](C)c1ccccc1)[C@@H](C)c1ccccc1 [1-Npm2,5,8,11, H-(Nlys-Npm-Nspe)4-NH2] (H-[Nlys][Nphe][Nspe][Nlys][Nphe][Nspe][Nlys][Nphe][Nspe][Nlys][Nphe][Nspe]-NH2)", "measuredOn": "Proteus vulgaris ATCC 49132", "endpointUnit": "µM", "MIC Proteus vulgaris ATCC 49132": 36.3}
{"compound": "C[C@@H](c1ccccc1)N(CC(N)=O)C(=O)CN(C(=O)CN(CCCCN)C(=O)CN(C(=O)CN(C(=O)CN(CCCCN)C(=O)[C@@H]1CCCN1C(=O)CN(C(=O)CN(CCCCN)C(=O)CN(C(=O)CN(C(=O)CNCCCCN)[C@@H](C)c1ccccc1)[C@@H](C)c1ccccc1)[C@@H](C)c1ccccc1)[C@@H](C)c1ccccc1)[C@@H](C)c1ccccc1)[C@@H](C)c1ccccc1 [1-Pro6] (H-[Nlys][Nspe][Nspe][Nlys][Nspe]P[Nlys][Nspe][Nspe][Nlys][Nspe][Nspe]-NH2)", "measuredOn": "Proteus vulgaris ATCC 49132", "endpointUnit": "µM", "MIC Proteus vulgaris ATCC 49132": 18.2}

Turning now to a further compound:
(Q) Which MIC Proteus vulgaris ATCC 49132 value is on record for CC(C)[C@H](C)N(CC(=O)N(CC(=O)N(CCCCN)CC(=O)N(CC(=O)N(CC(=O)N(CCCCN)CC(=O)N(CC(=O)N(CC(=O)N(CCCCN)CC(=O)N(CC(=O)N(CC(N)=O)[C@@H](C)c1ccccc1)[C@@H](C)C(C)C)[C@@H](C)c1ccccc1)[C@@H](C)C(C)C)[C@@H](C)c1ccccc1)[C@@H](C)C(C)C)[C@@H](C)c1ccccc1)C(=O)CNCCCCN [1-Nsdp2,5,8,11, H-(Nlys-Nsdp-Nspe)4-NH2] (H-[Nlys][X1][Nspe][Nlys][X1][Nspe][Nlys][X1][Nspe][Nlys][X1][Nspe]-NH2) ?
(A) 19.0

###

test system: Staphylococcus aureus VAN2; format: cell-based; settings: VAN2
Square brackets hold non-standard residues; d marks the D form. Peptide text beside a SMILES is read from it. Nspe = C[C@H](NCC(=O)O)c1ccccc1; Nlys = NCCCCNCC(=O)O
measuredProperty: MIC Staphylococcus aureus VAN2 (µM)
One number for each entry, in µM.

(Q) What reported MIC Staphylococcus aureus VAN2 corresponds to C[C@@H](c1ccccc1)N(CC(N)=O)C(=O)CN(C(=O)CN(CCCCN)C(=O)CN(C(=O)CN(C(=O)CN(CCCCN)C(=O)[C@@H]1CCCN1C(=O)CN(C(=O)CN(CCCCN)C(=O)CN(C(=O)CN(C(=O)CNCCCCN)[C@@H](C)c1ccccc1)[C@@H](C)c1ccccc1)[C@@H](C)c1ccccc1)[C@@H](C)c1ccccc1)[C@@H](C)c1ccccc1)[C@@H](C)c1ccccc1 [1-Pro6] (H-[Nlys][Nspe][Nspe][Nlys][Nspe]P[Nlys][Nspe][Nspe][Nlys][Nspe][Nspe]-NH2) on Staphylococcus aureus VAN2?
(A) 4.6

###

tested on: human erythrocytes; experiment: Hemolysis assay; assay type: cell-based
Square brackets hold non-standard residues; d marks the D form. Peptide text beside a SMILES is read from it. Nspe = C[C@H](NCC(=O)O)c1ccccc1; NDecylGly = CCCCCCCCCCNCC(=O)O; Nlys = NCCCCNCC(=O)O
measuredProperty: HD50

Below are worked cases with known answers.
{"compound": "CCCCCCCCCCNCC(=O)N(CCCCN)CC(=O)N(CC(=O)N(CC(=O)N(CCCCN)CC(=O)N(CC(=O)N(CC(N)=O)[C@@H](C)c1ccccc1)[C@@H](C)c1ccccc1)[C@@H](C)c1ccccc1)[C@@H](C)c1ccccc1 [C10-16 mer] (H-[NDecylGly][Nlys][Nspe][Nspe][Nlys][Nspe][Nspe]-NH2)", "measuredProperty": "HD50", "result": "80 µM"}
{"compound": "C[C@H](NCC(=O)N(CC(=O)N(CCCCN)CC(=O)N(CC(=O)N(CC(=O)N(CCCCN)CC(=O)N(CC(=O)N(CC(=O)N(CCCCN)CC(=O)N(CC(=O)N(CC(=O)N(CCCCN)CC(N)=O)[C@@H](C)c1ccccc1)[C@@H](C)c1ccccc1)[C@@H](C)c1ccccc1)[C@@H](C)c1ccccc1)[C@@H](C)c1ccccc1)[C@@H](C)c1ccccc1)[C@@H](C)c1ccccc1)c1ccccc1 [1C, H-(Nspe-Nspe-Nlys)4-NH2] (H-[Nspe][Nspe][Nlys][Nspe][Nspe][Nlys][Nspe][Nspe][Nlys][Nspe][Nspe][Nlys]-NH2)", "measuredProperty": "HD50", "result": "> 100 µM"}

Consider the additional compound presented here.
(Q) Field request: HD50 | item: CCCCCCCCCCNCC(=O)N(CCCCN)CC(=O)N(CC(=O)N(CC(=O)N(CCCCN)CC(N)=O)[C@@H](C)c1ccccc1)[C@@H](C)c1ccccc1 [C10-14 mer] (H-[NDecylGly][Nlys][Nspe][Nspe][Nlys]-NH2)
(A) >200/>200 μM

###

I'd be grateful if you could share measured HD50 for these entries.
tested on: human erythrocytes; test: Hemolysis assay; assay type: cell-based
Numbered stars: 1 amine (or outer) side, 2 acyl side, 3 side chain; on linkers, the order of the positions; unused ones are H or OH. Square brackets hold non-standard residues; d marks the D form. Peptide text beside a SMILES is read from it. X1 = CC(C)[C@H](C)N(CC(=O)[*:2])[*:1]; Nspe = C[C@H](NCC(=O)O)c1ccccc1; NPentylGly = CCCCCNCC(=O)O; Nphe = O=C(O)CNCc1ccccc1; Nlys = NCCCCNCC(=O)O

The cases that follow already have their HD50 on record.
{"molecule": "C[C@@H](c1ccccc1)N(CC(=O)N(CC(=O)N(CCCCN)CC(=O)N(CC(=O)N(CC(=O)N(CCCCN)CC(=O)N(CC(=O)N(CC(=O)N(CCCCN)CC(=O)N(CC(=O)N(CC(N)=O)Cc1ccccc1)Cc1ccccc1)Cc1ccccc1)Cc1ccccc1)Cc1ccccc1)Cc1ccccc1)Cc1ccccc1)C(=O)CNCCCCN [1ach-Nspe2, H-(Nlys-Nspe-Npm)-(Nlys-Npm-Npm)3-NH2] (H-[Nlys][Nspe][Nphe][Nlys][Nphe][Nphe][Nlys][Nphe][Nphe][Nlys][Nphe][Nphe]-NH2)", "HD50": "> 200 µM"}
{"molecule": "C[C@@H](c1ccccc1)N(CC(N)=O)C(=O)CN(C(=O)CN(CCCCN)C(=O)CN(Cc1ccccc1)C(=O)CN(Cc1ccccc1)C(=O)CN(CCCCN)C(=O)CN(C(=O)CN(C(=O)CN(CCCCN)C(=O)CN(Cc1ccccc1)C(=O)CN(Cc1ccccc1)C(=O)CNCCCCN)[C@@H](C)c1ccccc1)[C@@H](C)c1ccccc1)[C@@H](C)c1ccccc1", "HD50": "> 200 µM"}
{"molecule": "C[C@@H](c1ccccc1)N(CC(N)=O)C(=O)CN(C(=O)CN(CCCCN)C(=O)CN(C(=O)CN(C(=O)CN(CCCCN)C(=O)CN(C(=O)CN(C(=O)CNCCCCN)[C@@H](C)c1ccccc1)[C@@H](C)c1ccccc1)[C@@H](C)c1ccccc1)[C@@H](C)c1ccccc1)[C@@H](C)c1ccccc1 [19 mer, H-(Nlys-Nspe-Nspe)3-NH2] (H-[Nlys][Nspe][Nspe][Nlys][Nspe][Nspe][Nlys][Nspe][Nspe]-NH2)", "HD50": "> 200 µM"}

Each molecule below has a recorded value; state its HD50.
1. CCCCCNCC(=O)N(CCCCN)CC(=O)N(CC(=O)N(CC(=O)N(CCCCN)CC(=O)N(CC(=O)N(CC(=O)N(CCCCN)CC(=O)N(CC(=O)N(CC(N)=O)[C@@H](C)c1ccccc1)[C@@H](C)c1ccccc1)[C@@H](C)c1ccccc1)[C@@H](C)c1ccccc1)[C@@H](C)c1ccccc1)[C@@H](C)c1ccccc1 [C5-19 mer] (H-[NPentylGly][Nlys][Nspe][Nspe][Nlys][Nspe][Nspe][Nlys][Nspe][Nspe]-NH2)
2. CCCCCNCC(=O)N(CCCCN)CC(=O)N(CC(=O)N(CC(=O)N(CCCCN)CC(=O)N(CC(=O)N(CC(=O)N(CCCCN)CC(=O)N(CC(=O)N(CC(=O)N(CCCCN)CC(=O)N(CC(=O)N(CC(N)=O)[C@@H](C)c1ccccc1)[C@@H](C)c1ccccc1)[C@@H](C)c1ccccc1)[C@@H](C)c1ccccc1)[C@@H](C)c1ccccc1)[C@@H](C)c1ccccc1)[C@@H](C)c1ccccc1)[C@@H](C)c1ccccc1 [C5-1] (H-[NPentylGly][Nlys][Nspe][Nspe][Nlys][Nspe][Nspe][Nlys][Nspe][Nspe][Nlys][Nspe][Nspe]-NH2)
3. CC(C)[C@H](C)N(CC(N)=O)C(=O)CN(C(=O)CN(CCCCN)C(=O)CN(C(=O)CN(C(=O)CN(CCCCN)C(=O)CN(C(=O)CN(C(=O)CN(CCCCN)C(=O)CN(C(=O)CN(C(=O)CNCCCCN)[C@@H](C)C(C)C)[C@@H](C)C(C)C)[C@@H](C)C(C)C)[C@@H](C)C(C)C)[C@@H](C)C(C)C)[C@@H](C)C(C)C)[C@@H](C)C(C)C
4. CC(C)[C@H](C)N(CC(=O)N(CCCCN)CC(=O)N(CC(=O)N(CC(=O)N(CCCCN)CC(=O)N(CC(=O)N(CC(=O)N(CCCCN)CC(=O)N(CC(=O)N(CC(N)=O)[C@@H](C)c1ccccc1)[C@@H](C)c1ccccc1)[C@@H](C)C(C)C)[C@@H](C)C(C)C)[C@@H](C)c1ccccc1)[C@@H](C)c1ccccc1)C(=O)CN(C(=O)CNCCCCN)[C@@H](C)C(C)C [1-Nsdp2,3,8,9, H-(Nlys-Nsdp-Nsdp-Nlys-Nspe-Nspe)2-NH2] (H-[Nlys][X1][X1][Nlys][Nspe][Nspe][Nlys][X1][X1][Nlys][Nspe][Nspe]-NH2)
5. C[C@H](NCC(=O)N(CC(=O)N(CCCCN)CC(=O)N(CC(=O)N(CCCCN)CC(=O)N(CC(=O)N(CCCCN)CC(=O)N(CC(=O)N(CC(=O)N(CC(=O)N(CC(=O)N(CCCCN)CC(N)=O)[C@@H](C)c1ccccc1)[C@@H](C)c1ccccc1)[C@@H](C)c1ccccc1)[C@@H](C)c1ccccc1)[C@@H](C)c1ccccc1)[C@@H](C)c1ccccc1)[C@@H](C)c1ccccc1)c1ccccc1 [1scr, H-(Nspe)2-(Nlys-Nspe)3-(Nspe)3-Nlys-NH2] (H-[Nspe][Nspe][Nlys][Nspe][Nlys][Nspe][Nlys][Nspe][Nspe][Nspe][Nspe][Nlys]-NH2)
6. C[C@@H](c1ccccc1)N(CC(N)=O)C(=O)CN(C(=O)CN(CCCCN)C(=O)[C@@H]1CCCN1C(=O)CN(C(=O)CN(CCCCN)C(=O)CN(C(=O)CN(C(=O)CN(CCCCN)C(=O)CN(C(=O)CN(C(=O)CNCCCCN)[C@@H](C)c1ccccc1)[C@@H](C)c1ccccc1)[C@@H](C)c1ccccc1)[C@@H](C)c1ccccc1)[C@@H](C)c1ccccc1)[C@@H](C)c1ccccc1 [1-Pro9] (H-[Nlys][Nspe][Nspe][Nlys][Nspe][Nspe][Nlys][Nspe]P[Nlys][Nspe][Nspe]-NH2)

(A)
1. > 200 µM
2. 40 µM
3. >200/>200 μM
4. > 200 µM
5. > 200 µM
6. > 200 µM
